method-summary: adipocyte viability effects, profiling panel, cell-based, 3T3-L1 adipocytes, calcein-AM fluorescence, 48 h, basal (AID 1163); note: test concentration not given here
experimental-context: 3T3-L1 adipocytes viability, higher = more signal
property-label: z-score
Reply with just the number.

Some solved cases for reference:
[N-]=[N+]=NCc1ccccc1[C@@H]1OC(c2ccc(OCCCO)cc2)=N[C@]1(Cc1ccccc1N=[N+]=[N-])C(=O)NCCN1CCOCC1 ... 0.727
CCc1cccc(NC(=O)O[C@H]2[C@H](OC(=O)Nc3ccccc3)[C@H](OC(=O)Nc3ccccc3)[C@@H](OC)O[C@@H]2CO)c1 ... 1.18
COCCOC(=O)N1C(=O)[C@@]2(c3cc(C#CCC(C(=O)OC)C(=O)OC)ccc31)[C@H](C(=O)NC[C@H](O)c1ccccc1)[C@H]1C(=O)O[C@H](c3ccccc3)[C@H](c3ccccc3)N1[C@@H]2c1ccc(OCCO)cc1 ... 0.951
CCCC=C(CCC)[C@@H](NS(=O)(=O)c1cccc2cccnc12)c1ccc(-c2ccccc2)cc1 ... -0.411
O=C1O[C@H](c2ccccc2)[C@H](c2ccccc2)N2[C@H]1[C@@H](C(=O)N1CCCCCCC1)[C@]1(C(=O)Nc3ccc(C#CC4(O)CCCCCC4)cc31)[C@H]2c1ccccc1OCCO ... -0.107

Now look at this one.
Form field: reported z-score of "COC(=O)[C@@]1(Cc2ccccc2CN=[N+]=[N-])N=C(c2ccc(OCCCO)cc2)O[C@H]1c1ccccc1CN=[N+]=[N-]"
0.522
